- Protocol summary: Pharmacokinetic study in NOD/SCID mice
- Format: in vivo
- Reported conditions: plasma, iv, mouse, 5 mg/kg i.v.
Quick list: Tmax per entry.
# value in min; strip the unit string

>>> print(df.to_string())
                                   compound  result
0  COC[C@H](NC(=O)c1cnc(C)s1)C(=O)N[C@@H](COC)C(=O)N[C@@H](Cc1ccccc1)C(=O)[C@@]1(C)CO1 [ONX-0912, reference compound]       5

Query (compound): Cc1ncc(C(=O)N[C@@H](COC(F)F)C(=O)N[C@@H](COC(F)F)C(=O)N[C@@H](Cc2ccccc2)C(=O)[C@@]2(C)CO2)s1 ; field requested: Tmax
5

Origin of measurements: paper PMC4650734
